- TARGET SYSTEM: Somatostatin receptor type 1 (Homo sapiens)
- Sequence (P30872 whole entry): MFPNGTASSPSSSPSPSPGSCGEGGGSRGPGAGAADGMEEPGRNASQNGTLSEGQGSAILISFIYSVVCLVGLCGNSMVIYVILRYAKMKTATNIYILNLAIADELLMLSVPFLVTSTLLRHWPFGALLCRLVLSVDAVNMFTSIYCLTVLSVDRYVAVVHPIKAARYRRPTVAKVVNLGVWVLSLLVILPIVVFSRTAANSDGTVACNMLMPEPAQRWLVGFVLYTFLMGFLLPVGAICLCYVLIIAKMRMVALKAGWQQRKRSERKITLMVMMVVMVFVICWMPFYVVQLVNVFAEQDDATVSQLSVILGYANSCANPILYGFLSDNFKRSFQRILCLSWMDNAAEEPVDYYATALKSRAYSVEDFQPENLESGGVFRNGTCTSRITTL
- MEASUREMENT PROTOCOL: Displacement of [125I]-[LTT]-SS28 from human SST1 receptor expressed in CHO cells after 2 hrs by autoradiographic analysis
- Format: cell-based
READOUT TYPE: pIC50
Answer as the number alone; pIC50 is minus log10 of concentration in mol/L.

Here's what some known entries look like.
CCCC[C@H](NC(=O)CNC(=O)[C@H](C)NC(=O)CN1CCN(CC(=O)O)CCN(CC(=O)O)CCN(CC(=O)O)CC1)C(=O)N[C@@H](CCCCN)C(=O)N[C@@H]1CSSC[C@@H](C(=O)N[C@@H](CO)C(=O)NCC(=O)O)NC(=O)[C@H](Cc2ccccc2)NC(=O)[C@H]([C@@H](C)O)NC(=O)[C@H](CCCCN)NC(=O)[C@@H](Cc2c[nH]c3ccccc23)NC(=O)[C@H](Cc2ccccc2)NC(=O)[C@H](Cc2ccccc2)NC1=O; 7.74
C[C@@H](O)[C@@H]1NC(=O)[C@H](CCCCN)NC(=O)[C@@H](Cc2c[nH]c3ccccc23)NC(=O)[C@H](Cc2ccccc2)NC(=O)[C@H](Cc2ccccc2)NC(=O)[C@@H](NC(=O)[C@H](CCCNC(=N)N)NC(=O)COCCOCCNC(=O)CN2CCN(CC(=O)O)CCN(CC(=O)O)CCN(CC(=O)O)CC2)CSSC[C@@H](C(=O)O)NC(=O)[C@H](CO)NC(=O)[C@H](Cc2ccccc2)NC1=O; 6.77
C[C@H](NC(=O)CN1CCN(CC(=O)O)CCN(CC(=O)O)CCN(CC(=O)O)CC1)C(=O)NCC(=O)N[C@H]1CSSC[C@H](C(=O)O)NC(=O)[C@H](CO)NC(=O)[C@H]([C@@H](C)O)NC(=O)[C@H](Cc2ccccc2)NC(=O)[C@H]([C@@H](C)O)NC(=O)[C@H](CCCCN)NC(=O)[C@@H](Cc2c[nH]c3ccccc23)NC(=O)[C@H](Cc2ccccc2)NC(=O)[C@H](Cc2ccccc2)NC(=O)[C@H](CC(N)=O)NC(=O)[C@H](CCCNC(=N)N)NC1=O; 7.42
CCCC[C@H](NC(=O)CNC(=O)[C@H](C)NC(=O)CN1CCN(CC(=O)O)CCN(CC(=O)O)CCN(CC(=O)O)CC1)C(=O)N[C@@H](CCCCN)C(=O)N[C@H]1CSSC[C@@H](C(=O)N[C@@H](CO)C(=O)NCC(=O)O)NC(=O)[C@H](Cc2ccccc2)NC(=O)[C@H]([C@@H](C)O)NC(=O)[C@H](CCCCN)NC(=O)[C@@H](Cc2c[nH]c3ccccc23)NC(=O)[C@H](Cc2ccccc2)NC(=O)[C@H](Cc2ccccc2)NC1=O; 7.48

Supply reported pIC50 belonging to this compound: `C[C@@H](O)[C@@H]1NC(=O)[C@H](CCCCN)NC(=O)[C@@H](Cc2c[nH]c3ccccc23)NC(=O)[C@H](Cc2ccccc2)NC(=O)[C@H](Cc2ccccc2)NC(=O)[C@@H](NC(=O)CNC(=O)COCCOCCNC(=O)CN2CCN(CC(=O)O)CCN(CC(=O)O)CCN(CC(=O)O)CC2)CSSC[C@@H](C(=O)O)NC(=O)[C@H](CO)NC(=O)[C@H](Cc2ccccc2)NC1=O` 6.10
